All figures here come from the supplement of paper PMC10065799.

target: Grb2 SH2 (UniProt P62993); test: SH2 binding enrichment of the phosphorylated peptide, bacterial display (enrichment ratio); higher = better substrate or ligand; peptides without Tyr show the background;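 also: peptide library displayed on the E. coli surface as eCPX fusions, selected cells deep-sequenced, score is each peptide's frequency after selection divided by its frequency in the input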
Sequence (P62993 whole entry, looked up, the tested form may be a part): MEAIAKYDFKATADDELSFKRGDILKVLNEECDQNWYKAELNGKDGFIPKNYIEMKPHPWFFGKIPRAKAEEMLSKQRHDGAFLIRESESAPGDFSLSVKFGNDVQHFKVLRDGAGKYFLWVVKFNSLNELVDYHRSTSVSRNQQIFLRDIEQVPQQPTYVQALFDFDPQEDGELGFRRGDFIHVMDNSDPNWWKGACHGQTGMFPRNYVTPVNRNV
Reported Metric: SH2 binding enrichment

INSERT INTO measurements (chain, reported_metric, observed_result) VALUES
  ('MDQAEYQAKIR [DHX58_Y518]', 'SH2 binding enrichment', 0.754),
  ('PIFEGYALPHA [ACTA1_Y171_YF]', 'SH2 binding enrichment', 0.877),
  ('WGTPEYDSVVA [MAP1A_Y1883_A1881P]', 'SH2 binding enrichment', 0.829),
  ('ERIEFYELNKK [PMM2_Y145_D148N]', 'SH2 binding enrichment', 0.822),
  ('DGNIDYAEFAK [MCFD2_Y138_Y135N]', 'SH2 binding enrichment', 0.801),
  ('ASPALYRLDLD [TRIL_Y352]', 'SH2 binding enrichment', 0.753),
  ('HHFAAYFQQGD [GPI_Y351_R347H]', 'SH2 binding enrichment', 1.21),
  ('KVKPIYFHTRG [AR_Y916_Q920R]', 'SH2 binding enrichment', 2.2),
  ('CTTIHYTFMCN [TP53_Y234_N235T_YF]', 'SH2 binding enrichment', 1.83),
  ('GMTRNYIIFIE [BCO2_Y294]', 'SH2 binding enrichment', 1.34),
  ('FARNSYVAGQF [G6PD_Y107_YF]', 'SH2 binding enrichment', 0.81),
  ('GDYYCYLAEVA [YWHAG_Y133_R132C]', 'SH2 binding enrichment', 0.851),
  ('NFFDTYIKTCL [IQGAP2_Y1445_YF]', 'SH2 binding enrichment', 0.85),
  ('EADRKYEEVAC [TPM3_Y163_R168C]', 'SH2 binding enrichment', 1.12),
  ('KDHPDYKYQPR [SOX10_Y171]', 'SH2 binding enrichment', 1.04),
  ('DLDTDYGSGFP [RNASEH2A_Y206_YF]', 'SH2 binding enrichment', 0.589),
  ('SDYSRYARTSI [TERT_Y949_S948R]', 'SH2 binding enrichment', 0.755),
  ('VLVSQYEKLNA [AMZ2_Y26]', 'SH2 binding enrichment', 0.915),
  ('LRFDVYGGENE [STOX1_Y610_E608D_YF]', 'SH2 binding enrichment', 0.943),
  ('WEPFGYAVTRC [PTPRT_Y412]', 'SH2 binding enrichment', 0.683),
  ('ETAENYLGFTA [HSPA9_Y181_H184Y_YF]', 'SH2 binding enrichment', 0.703),
  ('QGCSIYKDYYR [PLA2G2D_Y82]', 'SH2 binding enrichment', 1.02),
  ('GFRPVYSEDEQ [CHST6_Y362_YF]', 'SH2 binding enrichment', 0.904),
  ('ESLRSYDVMDV [KCNQ2_Y562_P561S]', 'SH2 binding enrichment', 0.712),
  ('FSAPNCCYRCG [PPP2CA_Y265_Y265C]', 'SH2 binding enrichment', 0.925),
  ('GCKNHYDKDKP [THAP1_Y14_R13H]', 'SH2 binding enrichment', 1.11),
  ('KLIETYFSKNY [PLP1_Y50]', 'SH2 binding enrichment', 0.716),
  ('GFQPEYGQPAG [SYP_Y278_D277E_YF]', 'SH2 binding enrichment', 0.788),
  ('EVVGKYSVHNA [MLH1_Y183_R182K]', 'SH2 binding enrichment', 0.954);
